- targetUnderTest: Isoform Tau-F of Microtubule-associated protein tau (Human)
- Sequence (P10636 as listed by the source): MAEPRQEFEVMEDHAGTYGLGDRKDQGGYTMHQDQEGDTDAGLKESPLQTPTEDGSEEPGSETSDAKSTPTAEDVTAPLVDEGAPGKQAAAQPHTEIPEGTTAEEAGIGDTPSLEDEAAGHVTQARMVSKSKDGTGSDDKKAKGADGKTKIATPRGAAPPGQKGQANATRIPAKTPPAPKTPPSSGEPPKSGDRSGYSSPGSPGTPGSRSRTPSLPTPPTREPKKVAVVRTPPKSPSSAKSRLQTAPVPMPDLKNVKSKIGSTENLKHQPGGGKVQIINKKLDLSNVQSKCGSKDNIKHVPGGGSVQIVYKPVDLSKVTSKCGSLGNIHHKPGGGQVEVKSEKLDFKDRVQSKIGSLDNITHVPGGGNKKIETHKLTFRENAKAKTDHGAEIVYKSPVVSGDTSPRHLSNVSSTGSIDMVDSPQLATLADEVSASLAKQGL
- experimentNotes: Tau Protein Assay
- cond: pH 7.4
pIC50: −log10 of the molar value.
assayEndpoint: pIC50

Enquiry: Bench note: what pIC50 did CN(C)c1ccc(N=C2C=CC(=[N+](C)C)C=C2)cc1 show?
Return: 5.96

Enquiry: If you can, please state the reported pIC50 value of O=C1/C(=C/c2ccc(-c3cccc(Cl)c3)o2)SC(=S)N1CCc1c[nH]cn1 [Rhodanines, 39A] .
Return: 5.96

Enquiry: Quick check: pIC50 of O=C(O)Cc1ccc(CN2C(=O)/C(=C/c3ccc(-c4ccc(-c5ccccc5)cc4)o3)SC2=S)cc1 [Rhodanines, 33A] ?
Return: 6.14
